Data provenance is ChEMBL document CHEMBL1129428.

Recorded measurements of Activity, one per entry
tested on: Rattus norvegicus; experiment: Compound was tested for anticonvulsant activity after Oral Administration into Rats by using MES screen test after 0.25h,dose 30 mg/kg; number of rats out of four which were protected; assay type: functional
quantity-name: Activity

- chemical-smiles: "C/C(=N/NC(N)=O)c1ccc(Oc2ccc(Cl)cc2)cc1"
  reported-measurement: 3
- chemical-smiles: "CC/C(=N/NC(N)=O)c1ccc(Oc2ccccc2)cc1"
  reported-measurement: 1
- chemical-smiles: "Cc1cccc(C)c1Oc1ccc(/C=N/NC(N)=O)cc1"
  reported-measurement: 1
- chemical-smiles: "O=CN/N=C/c1ccc(Sc2ccc(F)cc2)cc1"
  reported-measurement: 1
- chemical-smiles: "C/C(=N/NC(N)=O)c1ccc(Sc2ccc(F)cc2)cc1"
  reported-measurement: 3
- chemical-smiles: "C/C(=N/NC(N)=O)c1ccccc1Oc1ccc(F)cc1"
  reported-measurement: 1
- chemical-smiles: "C/C(=N/NC(N)=O)c1ccc(Oc2ccccc2)cc1"
  reported-measurement: 4

----------
Below: a set of entries, each annotated with reported Dose.
system: Mus musculus; assay: Compound was tested for toxicity after intraperitoneal injection into mice by using toxicity screen test after 4 hr; format: organism-based; conditions: in vivo, ip
quantity-name: Dose (mg/kg)

- chemical-smiles: "C/C(=N/NC(N)=O)c1ccc(Sc2ccc(Br)cc2)cc1"
  quantity-name: "Dose"
  reported-measurement: 300
- chemical-smiles: "NC(=O)N/N=C\\c1ccc(Oc2cccc(F)c2)cc1"
  quantity-name: "Dose"
  reported-measurement: 300
- chemical-smiles: "NC(=O)N/N=C\\c1ccc(Oc2cccc(Cl)c2)cc1"
  quantity-name: "Dose"
  reported-measurement: 100
- chemical-smiles: "C/C(=N/NC(N)=O)c1ccc(Oc2ccc(Br)cc2)cc1"
  quantity-name: "Dose"
  reported-measurement: 100
- chemical-smiles: "Cc1cccc(C)c1Oc1ccc(/C=N/NC(N)=O)cc1"
  quantity-name: "Dose"
  reported-measurement: 300
- chemical-smiles: "NC(=O)N/N=C/c1ccc(Sc2ccccc2)cc1"
  quantity-name: "Dose"
  reported-measurement: 300
- chemical-smiles: "O=CN/N=C/c1ccc(Oc2ccc(F)cc2)cc1"
  quantity-name: "Dose"
  reported-measurement: 300

----------
tested on: Rattus norvegicus; assay: Compound was tested for anticonvulsant activity after Oral Administration into Rats by using MES screen test after 4h,dose 12.50 mg/kg; number of rats out of four which were protected; format: functional; settings: dose 12.5 mg/kg
quantity-name: Activity

- chemical-smiles: "NC(=O)N/N=C/c1ccc(Oc2ccc(Cl)cc2F)cc1"
  reported-measurement: 4
- chemical-smiles: "Cc1ccc(Oc2ccc(/C=N/NC(N)=O)cc2)c(C)c1"
  reported-measurement: 4
- chemical-smiles: "NC(=O)N/N=C/c1ccc(Oc2cc(F)cc(F)c2)cc1"
  reported-measurement: 4
- chemical-smiles: "Cc1cccc(Oc2ccc(/C=N/NC(N)=O)cc2)c1C"
  reported-measurement: 1

----------
system: Mus musculus; test: Compound was tested for toxicity after intraperitoneal injection into mice by using toxicity screen test after 4 hr; assay type: organism-based; settings: in vivo, ip
quantity-name: Dose

- molecule: "Cc1cc(Cl)ccc1Oc1ccc(/C=N/NC(N)=O)cc1"
  quantity-name: "Dose"
  reported-measurement: "100 mg/kg"
- molecule: "NC(=O)N/N=C/c1ccc(Oc2c(F)cccc2F)cc1"
  quantity-name: "Dose"
  reported-measurement: "300 mg/kg"
- molecule: "C/C(=N/NC(N)=O)c1ccc(Sc2ccc(F)cc2)cc1"
  quantity-name: "Dose"
  reported-measurement: "300 mg/kg"
- molecule: "CC/C(=N/NC(N)=O)c1ccccc1Oc1ccc(F)cc1"
  quantity-name: "Dose"
  reported-measurement: "300 mg/kg"
- molecule: "Cc1ccccc1Oc1ccc(/C=N/NC(N)=O)cc1"
  quantity-name: "Dose"
  reported-measurement: "300 mg/kg"
- molecule: "NC(=O)N/N=C/c1ccc(Oc2ccc(I)cc2)cc1"
  quantity-name: "Dose"
  reported-measurement: "100 mg/kg"
- molecule: "C/C(=N/NC(N)=O)c1ccccc1Oc1ccc(Cl)cc1"
  quantity-name: "Dose"
  reported-measurement: "300 mg/kg"
- molecule: "Cc1cccc(Oc2ccc(/C=N/NC(N)=O)cc2)c1"
  quantity-name: "Dose"
  reported-measurement: "300 mg/kg"
- molecule: "CC/C(=N/NC(N)=O)c1ccc(Oc2ccc(Br)cc2)cc1"
  quantity-name: "Dose"
  reported-measurement: "100 mg/kg"
- molecule: "NC(=O)C(=O)N/N=C/c1ccc(Oc2ccc(F)cc2)cc1"
  quantity-name: "Dose"
  reported-measurement: "300 mg/kg"
- molecule: "O=C1NC(=O)C(c2ccccc2)(c2ccccc2)N1 [PHENYTOIN]"
  quantity-name: "Dose"
  reported-measurement: "100 mg/kg"
- molecule: "O=CN/N=C/c1ccc(Sc2ccc(F)cc2)cc1"
  quantity-name: "Dose"
  reported-measurement: "300 mg/kg"

----------
test system: Mus musculus; assay: Toxicity after intraperitoneal injection into mice by using toxicity screen test after 0.5 hr; format: organism-based; settings: in vivo, ip

- compound: "CCc1ccc(Oc2ccc(/C=N/NC(N)=O)cc2)cc1"
  Dose (mg/kg): 300
- compound: "Cc1cccc(Oc2ccc(/C=N/NC(N)=O)cc2)c1"
  Dose (mg/kg): 100
- compound: "CC/C(=N/NC(N)=O)c1ccc(Sc2ccccc2)cc1"
  Dose (mg/kg): 100
- compound: "C/C(=N/NC(N)=O)c1ccc(Oc2ccc(F)cc2)cc1"
  Dose (mg/kg): 300
- compound: "CC/C(=N/NC(N)=O)c1ccc(Oc2ccccc2)cc1"
  Dose (mg/kg): 100
- compound: "Cc1ccc(Sc2ccc(/C=N/NC(N)=O)cc2)cc1"
  Dose (mg/kg): 300
- compound: "NC(=O)N/N=C/c1ccc(Oc2cc(F)cc(F)c2)cc1"
  Dose (mg/kg): 300
- compound: "CC/C(=N/NC(N)=O)c1ccc(Oc2ccc(Br)cc2)cc1"
  Dose (mg/kg): 300
- compound: "C/C(=N/NC(N)=O)c1ccccc1Oc1ccccc1"
  Dose (mg/kg): 300
- compound: "NC(=O)N/N=C/c1ccc(Sc2ccc(F)cc2)cc1"
  Dose (mg/kg): 300
- compound: "CCC(C)c1ccc(Oc2ccc(/C=N\\NC(N)=O)cc2)cc1 (configuration not stated)"
  Dose (mg/kg): 300
- compound: "NC(=O)N/N=C/c1ccc(Oc2ccc(Br)cc2)cc1"
  Dose (mg/kg): 300

----------
Listed here: items and their measured ED50.
system: Rattus norvegicus; experiment: Compound was tested for anticonvulsant activity after Oral Administration into rat by using MES screen test after 2 hr; assay type: functional

- chemical-smiles: "C/C(=N/NC(N)=O)c1ccccc1Oc1ccc(F)cc1"
  ED50 (mg/kg): 43.4
- chemical-smiles: "Cc1ccccc1Oc1ccc(/C=N/NC(N)=O)cc1"
  ED50 (mg/kg): 5.65
- chemical-smiles: "C/C(=N/NC(N)=O)c1ccc(Sc2ccc(F)cc2)cc1"
  ED50 (mg/kg): 9.11
- chemical-smiles: "NC(=O)N/N=C/c1ccc(Sc2ccc(F)cc2)cc1"
  ED50 (mg/kg): 4.98
- chemical-smiles: "Cc1ccc(Oc2ccc(/C=N/NC(N)=O)cc2)cc1"
  ED50 (mg/kg): 3.43
- chemical-smiles: "CC/C(=N/NC(N)=O)c1ccc(Oc2ccc(F)cc2)cc1"
  ED50 (mg/kg): 4.25
- chemical-smiles: "CC/C(=N/NC(N)=O)c1ccc(Sc2ccccc2)cc1"
  ED50 (mg/kg): 18.6
- chemical-smiles: "Cc1ccc(Sc2ccc(/C=N/NC(N)=O)cc2)cc1"
  ED50 (mg/kg): 3.65
- chemical-smiles: "C/C(=N/NC(N)=O)c1ccc(Oc2ccc(F)cc2)cc1"
  ED50 (mg/kg): 3.37
- chemical-smiles: "CCCc1ccc(Oc2ccc(/C=N/NC(N)=O)cc2)cc1"
  ED50 (mg/kg): 2.63
- chemical-smiles: "CC/C(=N/NC(N)=O)c1ccc(Oc2ccc(Cl)cc2)cc1"
  ED50 (mg/kg): 2.89

----------
experiment: Protection index = TD50/ED50 (scPTZ ); type: ADME; conditions: read-out: PI

- chemical-smiles: "C/C(=N/NC(N)=O)c1ccc(Sc2ccc(Br)cc2)cc1"
  selectivity ratio: 1.03

----------
test: Protection index = TD50/ED50 (MES); conditions: mouse, in vivo; read-out: PI
Lab note: compare selectivity ratio against 6. Equal or greater, write Fulfilled. Smaller, write Not fulfilled.

- chemical-smiles: "C/C(=N/NC(N)=O)c1ccc(Oc2ccc(C)cc2)cc1"
  assigned-label: "Fulfilled"
- chemical-smiles: "C/C(=N/NC(N)=O)c1ccc(Oc2ccc(Cl)cc2)cc1"
  assigned-label: "Fulfilled"
- chemical-smiles: "NC(=O)N/N=C/c1ccc(Sc2ccc(Br)cc2)cc1"
  assigned-label: "Not fulfilled"
- chemical-smiles: "CC/C(=N/NC(N)=O)c1ccc(Oc2ccc(Br)cc2)cc1"
  assigned-label: "Fulfilled"
- chemical-smiles: "Cc1ccc(C)c(Oc2ccc(/C=N/NC(N)=O)cc2)c1"
  assigned-label: "Fulfilled"
- chemical-smiles: "CCc1ccc(Oc2ccc(/C=N/NC(N)=O)cc2)cc1"
  assigned-label: "Not fulfilled"
- chemical-smiles: "C/C(=N/NC(N)=O)c1ccc(Sc2ccc(Br)cc2)cc1"
  assigned-label: "Fulfilled"
- chemical-smiles: "NC(=O)N/N=C/c1ccc(Sc2ccc(Cl)cc2)cc1"
  assigned-label: "Not fulfilled"
- chemical-smiles: "C/C(=N/NC(N)=O)c1ccc(Oc2ccccc2)cc1"
  assigned-label: "Fulfilled"
- chemical-smiles: "NC(=O)N/N=C/c1ccc(Oc2cc(F)cc(F)c2)cc1"
  assigned-label: "Not fulfilled"
- chemical-smiles: "C/C(=N/NC(N)=O)c1ccc(Oc2ccc(F)cc2)cc1"
  assigned-label: "Not fulfilled"
- chemical-smiles: "NC(=O)N/N=C\\c1ccc(OS(=O)(=O)c2ccccc2)cc1"
  assigned-label: "Not fulfilled"
